This listing pairs compounds with measured MIC Streptococcus pneumoniae (ATCC 6301).
System: Streptococcus sp.
assay: in vitro antibacterial evaluation, MIC by broth dilution
Type: cell-based
settings: broth dilution, inoculum 5×10^5 CFU/mL, 18 hours at 35° C.; strain ATCC 6301

compound	value.relation.sign	MIC Streptococcus pneumoniae (ATCC 6301) / µg/mL
CCCCN1CC(C(O)C2NC(=O)C(C(O)C3CNC(=N)N3)NC(=O)C(Cc3ccc(OC4OC(CO)C(OC5OC6COC7(OC6C(O)C5O)C5CC6CC(C5)CC7C6)C(O)C4O)cc3)NC(=O)C(C(C)c3ccccc3)NC(=O)CNC(=O)C(CO)NC2=O)N(C2OC(CO)C(O)C(O)C2O)C1=N (centres unmarked) [Example 224]	=	0.25
CC(c1ccccc1)C1NC(=O)CNC(=O)C(CO)NC(=O)C(CC2CNC(=N)N2C2OC(CO)C(O)C(O)C2O)NC(=O)C(CC2CNC(=N)N2)NC(=O)C(Cc2ccc(OC3OC(CO)C(OC4OC(COCc5ccc(OCc6ccccc6)cc5)C(O)C(O)C4O)C(O)C3O)cc2)NC1=O (centres unmarked) [Example 246]	=	2
CC(C)=CCOc1cccc(C2OCC3OC(OC4C(CO)OC(Oc5ccc(CC6NC(=O)C(C(C)c7ccccc7)NC(=O)CNC(=O)C(CO)NC(=O)C(C(O)C7CNC(=N)N7C7OC(CO)C(O)C(O)C7O)NC(=O)C(C(O)C7CNC(=N)N7)NC6=O)cc5)C(O)C4O)C(O)C(O)C3O2)c1 (centres unmarked) [Example 165]	=	0.12
CCCOc1ccc(COCC2OC(OC3C(CO)OC(Oc4ccc(CC5NC(=O)C(C(C)c6ccccc6)NC(=O)CNC(=O)C(CO)NC(=O)C(C(O)C6CNC(=N)N6C6OC(CO)C(O)C(O)C6O)NC(=O)C(C(O)C6CNC(=N)N6)NC5=O)cc4)C(O)C3O)C(O)C(O)C2O)cc1 (centres unmarked) [Example 235]	=	0.12
COc1ccc2cc(COC3C(CO)OC(OC4C(CO)OC(Oc5ccc(CC6NC(=O)C(C(C)c7ccccc7)NC(=O)CNC(=O)C(CO)NC(=O)C(C(O)C7CNC(=N)N7C7OC(CO)C(O)C(O)C7O)NC(=O)C(C(O)C7CNC(=N)N7)NC6=O)cc5)C(O)C4O)C(O)C3O)ccc2c1 (centres unmarked) [Example 230a]	<	0.06

# credit: patent US6914045B2
